assay: physchem; format: physicochemical; conditions: 25 °C, pH 7, aqueous with cosolvent or surfactant or cyclodextrin, thermodynamic from solid, saturated solubility (amount of soluble pimobendan)
METRIC: solubility

Q. solubility lookup needed for COc1ccc(-c2nc3ccc(C4=NNC(=O)CC4C)cc3[nH]2)cc1 (stereo not shown) [pimobendan] , thanks.
A. ~1230 µg/mL
